FYI, the data here is from patent US20250332173A1.

system: SMN2 mRNA; assay: RT-qPCR splicing assay, SMN2 canonical junction (CJ) mRNA; assay type: cell-based, human; conditions: Homo sapiens; canonical junction qPCR panel, Table 5; read-out: SMN2 (decrease in CJ mRNA levels, IC50)
pIC50: −log10 of the molar value.
MEASURE_NAME: pIC50

{"COMPOUND": "C[C@@H]1C[C@H](n2ccc3nc(-c4cc5cn(C)nc5cc4O)ncc3c2=O)CCN1 [Compound 1474]", "pIC50": "> 7.00"}
{"COMPOUND": "Cn1cc2cc(-c3ncc4c(=O)n(C56CCC(N)(CC5)C6)ccc4n3)cc(F)c2n1 [Compound 1489]", "pIC50": "> 7.00"}
{"COMPOUND": "Cc1cn2cc(-c3nc(C)c4c(=O)n([C@H]5CCN[C@@H](C)C5)ccc4n3)cc(F)c2n1 [Compound 1501]", "pIC50": "> 7.00"}
{"COMPOUND": "Cc1cn2nc(-c3ccc4c(=O)n(C5CCNC6(CC6)C5)ncc4n3)cc2c(C)n1 (centres unmarked) [Compound 1547]", "pIC50": "6.00 to 7.00"}
{"COMPOUND": "Cc1cn2cc(-c3ncc4c(=O)n([C@@H]5CCNC(C)(C)C5)ccc4n3)cc(F)c2n1 [Compound 1496]", "pIC50": "> 7.00"}
{"COMPOUND": "Cc1cc(-c2ccc3c(=O)[nH]c(N4CCN(C)CC4)nc3c2)cc2cn(C)nc12 [Compound 2212]", "pIC50": "5.00 to 6.00"}
{"COMPOUND": "Cc1cn2cc(-c3ccc4c(=O)n(C56CCC(N)(CC5)C6)ccc4n3)cc(F)c2n1 [Compound 1492]", "pIC50": "> 7.00"}

Now examine the next entry.
Task: Dear colleague, please send me the reported pIC50 for C[C@H]1C[C@@H](n2ccc3nc(-c4cc(F)c5nn(C)cc5c4)ncc3c2=O)CCN1 [Compound 1503] when you can.
Result: > 7.00

* * *

test system: MYB mRNA; experiment: RT-qPCR splicing assay, MYB canonical junction (CJ) and alternative junction (AJ) mRNA; format: cell-based, human; settings: Homo sapiens; increase in MYB alternative junction (AJ) mRNA, RT-qPCR; read-out: MYB AJ AC50
Each entry below carries its reported AC50.

Before answering, review these 5 worked examples.
{"COMPOUND": "Cc1c(O)c(-c2ccc3c(=O)n([C@H]4CCN[C@@H](C)C4)ccc3n2)cc2cn(C)nc12", "EXPERIMENTAL_VALUE": "< 100 nM"}
{"COMPOUND": "Cc1cn2nc(-c3ccc4c(=O)n(C5CCNCC5)ncc4c3)nc2c(C)n1", "EXPERIMENTAL_VALUE": "100 to 1000 nM"}
{"COMPOUND": "COc1cc(-c2ccc3c(=O)n([C@H]4CCN[C@@H](C)C4)ccc3n2)nn2cc(C)nc12", "EXPERIMENTAL_VALUE": "100 to 1000 nM"}
{"COMPOUND": "CNc1cc(-c2cc(C)c3nc(C)cn3n2)cc2ncn(C3CCNCC3)c(=O)c12", "EXPERIMENTAL_VALUE": "< 100 nM"}
{"COMPOUND": "Cc1cn2nc(-c3cc(F)c4c(=O)n(C56CCC(N)(CC5)C6)ccc4c3)cc(C)c2n1", "EXPERIMENTAL_VALUE": "< 100 nM"}

Task: Dear colleague, please send me the reported AC50 for Cc1cn2nc(-c3cc(F)c4c(=O)n(C5CCNC6(CC6)C5)ccc4c3)cc(C)c2n1 (centres unmarked) when you can.
Result: < 100 nM

Task: Dear colleague, please send me the reported AC50 for CN1CCC(Nc2ccc3ncn(-c4ccc5nn(C)cc5c4)c(=O)c3c2)CC1 when you can.
Result: > 10000 nM

Task: Dear colleague, please send me the reported AC50 for Cc1cn2cc(-c3cc(F)c4c(=O)n([C@H]5CNCC[C@@H]5O)cnc4c3)cc(F)c2n1 when you can.
Result: > 10000 nM

* * *

Each entry below carries its reported AC50.
test system: MYB mRNA; experiment: RT-qPCR splicing assay, MYB canonical junction (CJ) and alternative junction (AJ) mRNA; format: cell-based, human; conditions: Homo sapiens; increase in MYB alternative junction (AJ) mRNA, RT-qPCR; read-out: MYB AJ AC50

Before answering, review these 2 worked examples.
{"MOLECULE": "Cc1cn2nc(-c3ccc4c(=O)n([C@@H]5CCN[C@H](C)C5)ncc4c3)cc(C)c2n1 [Compound 272]", "AC50": "< 100 nM"}
{"MOLECULE": "Cc1c(O)c(-c2ncc3c(=O)n([C@@H]4C[C@H]5COC[C@@H](C4)N5)ccc3n2)cc2cn(C)nc12 [Compound 1471]", "AC50": "< 100 nM"}

Task: Dear colleague, please send me the reported AC50 for Cc1c(O)c(-c2ncc3c(=O)n([C@H]4CC[C@@H](N(C)C)CC4)ccc3n2)cc2cn(C)nc12 [Compound 1460] when you can.
Result: 100 to 1000 nM

Task: Dear colleague, please send me the reported AC50 for Cn1cc2cc(-c3ncc4c(=O)n(C5CCNC5)ccc4n3)c(O)c(F)c2n1 (stereo not shown) [Compound 1223] when you can.
Result: 100 to 1000 nM

* * *

system: MYB; experiment: HiBiT protein abundance assay, MYB HiBiT K562 cell line; assay type: cell-based, human; conditions: HiBiT K562 cell line, 24 hours, top dose 10 μM; read-out: Effect on protein abundance, MYB (IC50 category)
pIC50: −log10 of the molar value.
MEASURE_NAME: pIC50

Before answering, review these 6 worked examples.
{"COMPOUND": "Cc1cc(-c2cc(F)c3c(=O)n(C4CCNC5(CC5)C4)ccc3c2)nc2cn(C)nc12 (centres unmarked)", "pIC50": "> 7.00"}
{"COMPOUND": "Cc1cn2nc(-c3ccc4c(=O)n([C@H]5CCNC6(CC6)C5)cnc4c3)cc(C)c2n1", "pIC50": "6.00 to 7.00"}
{"COMPOUND": "Cc1cn2cc(-c3ccc4c(c3)CCN(C3CCNCC3)C4=O)cc(C(F)(F)F)c2n1", "pIC50": "5.00 to 6.00"}
{"COMPOUND": "CNc1cc(-c2cc(C)c3nc(C)cn3n2)cc2ccn([C@@H]3CCNC3)c(=O)c12", "pIC50": "5.00 to 6.00"}
{"COMPOUND": "Cc1cn2cc(-c3cc(F)c4c(=O)n([C@H]5CNC[C@@H]5F)ccc4c3)cc(F)c2n1", "pIC50": "5.00 to 6.00"}
{"COMPOUND": "Cc1cn2cc(-c3ccc4c(=O)n(C5CCN(C)CC5)cnc4c3F)cc(F)c2n1", "pIC50": "5.00 to 6.00"}

Task: Dear colleague, please send me the reported pIC50 for Cn1ccc2c(cnn2-c2ccc3c(=O)n(C4CCNCC4)ccc3c2)c1=O when you can.
Result: 5.00 to 6.00

Task: Dear colleague, please send me the reported pIC50 for Cc1cn2cc(-c3ccc4c(=O)n([C@@H]5CCN[C@H](C)C5)cnc4c3)cc(F)c2n1 when you can.
Result: 5.00 to 6.00

* * *

Each entry below carries its reported pIC50.
system: HTT mRNA; assay: RT-qPCR splicing assay, HTT canonical junction (CJ) and alternative junction (AJ) mRNA; assay type: cell-based, human; settings: Homo sapiens, decrease in HTT canonical junction (CJ) mRNA, RT-qPCR; read-out: HTT CJ IC50
pIC50: −log10 of the molar value.

{"COMPOUND": "Cc1cn2cc(-c3cc(F)c4c(=O)n(C5CCOC5)cnc4c3)cc(C#N)c2n1 (stereo in doubt)", "pIC50": "6.00 to 7.00"}

Task: Consider the compound Cn1cc2cc(-c3cc4ccn(C5CCNCC5)c(=O)c4cn3)c(O)c(F)c2n1 tested on HTT mRNA; state its pIC50.
Result: 5.00 to 6.00

Task: Consider the compound Cc1cn2nc(-c3ccc4c(c3F)CCN(C3CCNCC3)C4=O)cc(C)c2n1 tested on HTT mRNA; state its pIC50.
Result: 5.00 to 6.00

Task: Consider the compound Cn1cc2cc(-c3cc(F)c4c(=O)n(C5CCNCC5)cnc4c3)c(F)cc2n1 tested on HTT mRNA; state its pIC50.
Result: 5.00 to 6.00

Task: Consider the compound Cc1cn2nc(-c3ccc4c(=O)n(C5CCN(C)C5)ncc4c3)cc(C)c2n1 (stereo not shown) tested on HTT mRNA; state its pIC50.
Result: 5.00 to 6.00

Task: Consider the compound CN1CC=C(c2ccc3c(=O)n(-c4ccc5nn(C)cc5c4)cnc3c2)CC1 tested on HTT mRNA; state its pIC50.
Result: < 5.00

Task: Consider the compound Cc1nc2c(F)cc(-c3ccc4c(=O)n(C5CCNCC5)cnc4c3)cc2o1 tested on HTT mRNA; state its pIC50.
Result: 6.00 to 7.00

Task: Consider the compound Cc1cn2cc(-c3ncc4c(=O)n([C@@H]5CCN[C@@H](C)C5)ccc4n3)cc(F)c2n1 tested on HTT mRNA; state its pIC50.
Result: 5.00 to 6.00

Task: Consider the compound Cc1cn2cc(-c3cc4ccn(C5CCNCC5)c(=O)c4cn3)cc(F)c2n1 tested on HTT mRNA; state its pIC50.
Result: 6.00 to 7.00

Task: Consider the compound Cc1cn2nc(-c3ccc4c(=O)n(C5CCNCC5)ncc4c3)cc(Oc3ccccc3)c2n1 tested on HTT mRNA; state its pIC50.
Result: > 7.00

Task: Consider the compound Cc1c(O)c(-c2ccc3c(=O)n([C@H]4CCNC4)ccc3n2)cc2cn(C)nc12 tested on HTT mRNA; state its pIC50.
Result: 5.00 to 6.00

Task: Consider the compound Cc1cn2nc(-c3ccc4c(=O)n(C5CCNCC5)ccc4c3)cc(CO)c2n1 tested on HTT mRNA; state its pIC50.
Result: 6.00 to 7.00
